- measuredOn: Histone deacetylase
- measurementNotes: Inhibition of HDAC in human HeLa nuclear extract incubated for 30 mins by fluorescence-based Glo-luminescence assay
- Format: cell-based

smilesNotation: CN(C)CCCNC(=O)c1ccc(/C=C2\CCn3c2nc2cc(N4CCN(CCCCCCC(=O)NO)CC4)c(F)cc2c3=O)cc1.Cl
IC50, µM: 2.1

smilesNotation: Cl.O=C(CCCCCCNC(=O)c1ccc(/C=C2\CCn3c2nc2cc(NCCCN4CCCC4)c(F)cc2c3=O)cc1)NO
IC50, µM: 0.05

smilesNotation: CN(C)CCCNC(=O)c1ccc(/C=C2\CCn3c2nc2ccc(OCCCCCCC(=O)NO)cc2c3=O)cc1.Cl
IC50, µM: 0.06

smilesNotation: CN(C)CCCNC(=O)c1ccc(/C=C2\CCn3c2nc2cc(N4CCN(CCCCCC(=O)NO)CC4)c(F)cc2c3=O)cc1.Cl
IC50, µM: 1.6

smilesNotation: CN(C)CCCNC(=O)c1ccc(/C=C2\CCn3c2nc2cc(N4CCN(CCCCC(=O)NO)CC4)c(F)cc2c3=O)cc1.Cl
IC50, µM: 1.5

smilesNotation: Nc1ccccc1NC(=O)c1ccc(/C=C2\CCn3c2nc2cc(NCCCN4CCCC4)c(F)cc2c3=O)cc1
IC50, µM: 8.6

smilesNotation: CN(C)CCCNC(=O)c1ccc(/C=C2\CCn3c2nc2cc(N4CCN(Cc5ccc(/C=C/C(=O)NO)cc5)CC4)c(F)cc2c3=O)cc1.Cl
IC50, µM: 1.9

smilesNotation: CN(C)CCCNC(=O)c1ccc(/C=C2\CCn3c2nc2cc(NCCCCCCC(=O)NO)c(F)cc2c3=O)cc1.Cl
IC50, µM: 0.07

smilesNotation: CN(C)CCCNC(=O)c1ccc(/C=C2\CCn3c2nc2cc(N4CCN(Cc5ccc(/C=C/C(=O)Nc6ccccc6N)cc5)CC4)c(F)cc2c3=O)cc1
IC50, µM: 8.1

smilesNotation: CN(C)CCCNC(=O)c1ccc(/C=C2\CCn3c2nc2cc(N4CCN(Cc5ccc(C(=O)NO)cc5)CC4)c(F)cc2c3=O)cc1.Cl
IC50, µM: 2.5

smilesNotation: CN(C)CCCNc1cc2nc3n(c(=O)c2cc1F)CC/C3=C\c1ccc(C(=O)Nc2ccccc2N)cc1
IC50, µM: 5.8

smilesNotation: CN(C)CCCNC(=O)c1ccc(/C=C2\CCn3c2nc2cc(N4CCN(CCCCCCCC(=O)NO)CC4)c(F)cc2c3=O)cc1.Cl
IC50, µM: 1.9
